# Tested on: Escherichia coli TOP10
# Experiment description: shrunken log2 fold change of peptide-encoding DNA abundance (4.5 h post-induction vs induction); higher = less antimicrobial activity (less host growth inhibition)
# Cond: time post-induction: 4.5 h; library: site-saturation at positions 5, 18, 19, 20
Measured parameter: shrunken log2 fold change

1) RRIRDRPPRLPRPRPRPFMEPRP	-0.148
2) RRIRWRPPRLPRPRPRPWSMPRP	-0.269
3) RRIRARPPRLPRPRPRPFWEPRP	0.269
4) RRIRQRPPRLPRPRPRPTDRPRP	0.0938
5) RRIRKRPPRLPRPRPRPTNPPRP	0.155
6) RRIRGRPPRLPRPRPRPMDLPRP	0.241
7) RRIRYRPPRLPRPRPRPVSFPRP	-0.717
8) RRIRRRPPRLPRPRPRPFWGPRP	0.463
9) RRIRARPPRLPRPRPRPKGIPRP	-0.0515
10) RRIRIRPPRLPRPRPRPKNDPRP	-0.867
11) RRIRMRPPRLPRPRPRPGQIPRP	-0.00968
12) RRIRKRPPRLPRPRPRPFVHPRP	-0.254
13) RRIRCRPPRLPRPRPRPPDHPRP	0.279
14) RRIRCRPPRLPRPRPRPQSTPRP	-0.673

====

# shrunken log2 fold change annotations
# Test system: Escherichia coli TOP10
# Experiment description: shrunken log2 fold change of peptide-encoding DNA abundance (4.5 h post-induction vs induction); higher = less antimicrobial activity (less host growth inhibition)
# Cond: time post-induction: 4.5 h; library: site-saturation at positions 5, 18, 19, 20
Measured parameter: shrunken log2 fold change

1. RRIRPRPPRLPRPRPRPQLHPRP	-0.0604
2. RRIRMRPPRLPRPRPRPHMRPRP	0.509
3. RRIRRRPPRLPRPRPRPMRCPRP	0.384
4. RRIRDRPPRLPRPRPRPDYRPRP	-0.241
5. RRIRDRPPRLPRPRPRPNVMPRP	-0.323
6. RRIRKRPPRLPRPRPRPMAQPRP	-0.0932
7. RRIRWRPPRLPRPRPRPKPLPRP	0.375
8. RRIRMRPPRLPRPRPRPYCRPRP	-0.0603
9. RRIRVRPPRLPRPRPRPVFHPRP	-0.213
10. RRIRSRPPRLPRPRPRPGEAPRP	0.287
11. RRIRYRPPRLPRPRPRPKMFPRP	-0.845

====

# Test system: Escherichia coli TOP10
# Experiment description: shrunken log2 fold change of peptide-encoding DNA abundance (4.5 h post-induction vs induction); higher = less antimicrobial activity (less host growth inhibition)
# Cond: time post-induction: 4.5 h; library: site-saturation at positions 5, 18, 19, 20
In this scheme, each record receives a class according to its shrunken log2 fold change; the ranges are low (below -0.04), intermediate (-0.04 to below 0.1), high (0.1 or more)

1) RRIRERPPRLPRPRPRPPRRPRP	high
2) RRIRFRPPRLPRPRPRPTPKPRP	high
3) RRIRMRPPRLPRPRPRPIFSPRP	intermediate
4) RRIRQRPPRLPRPRPRPGIDPRP	intermediate
5) RRIRARPPRLPRPRPRPFVIPRP	intermediate
6) RRIRWRPPRLPRPRPRPQEHPRP	intermediate
7) RRIRSRPPRLPRPRPRPMVIPRP	intermediate
8) RRIRLRPPRLPRPRPRPYNAPRP	low
9) RRIRYRPPRLPRPRPRPHVAPRP	low
10) RRIRGRPPRLPRPRPRPTWAPRP	high
11) RRIRQRPPRLPRPRPRPQLKPRP	intermediate
12) RRIRFRPPRLPRPRPRPWKNPRP	intermediate
13) RRIRFRPPRLPRPRPRPKLHPRP	low
14) RRIRTRPPRLPRPRPRPKCHPRP	low
15) RRIRIRPPRLPRPRPRPHGNPRP	high
16) RRIRMRPPRLPRPRPRPYPRPRP	high
17) RRIRGRPPRLPRPRPRPKQKPRP	low
18) RRIRSRPPRLPRPRPRPGDWPRP	high
19) RRIRARPPRLPRPRPRPAFYPRP	high
20) RRIRSRPPRLPRPRPRPKWHPRP	intermediate
21) RRIRQRPPRLPRPRPRPNQMPRP	low
22) RRIRCRPPRLPRPRPRPGREPRP	high
23) RRIRTRPPRLPRPRPRPFQCPRP	intermediate
24) RRIRQRPPRLPRPRPRPKGWPRP	high
25) RRIRFRPPRLPRPRPRPWHQPRP	low
26) RRIRMRPPRLPRPRPRPKMNPRP	high
27) RRIRYRPPRLPRPRPRPCYMPRP	intermediate
28) RRIRLRPPRLPRPRPRPDHQPRP	low
29) RRIRVRPPRLPRPRPRPKQQPRP	intermediate
30) RRIRFRPPRLPRPRPRPFGVPRP	low
31) RRIRWRPPRLPRPRPRPTEWPRP	high
32) RRIRVRPPRLPRPRPRPDHPPRP	low
33) RRIRERPPRLPRPRPRPFGMPRP	low
34) RRIRNRPPRLPRPRPRPGQHPRP	high
35) RRIRMRPPRLPRPRPRPMHHPRP	intermediate
36) RRIRFRPPRLPRPRPRPAMAPRP	intermediate
37) RRIRKRPPRLPRPRPRPLDDPRP	high
38) RRIRNRPPRLPRPRPRPTEWPRP	intermediate
39) RRIRMRPPRLPRPRPRPPFQPRP	high
40) RRIRTRPPRLPRPRPRPLAEPRP	high
41) RRIRNRPPRLPRPRPRPYRHPRP	intermediate
42) RRIRYRPPRLPRPRPRPHRAPRP	low
43) RRIRQRPPRLPRPRPRPTESPRP	high
44) RRIRKRPPRLPRPRPRPIKKPRP	low
45) RRIRRRPPRLPRPRPRPAYEPRP	high
46) RRIRIRPPRLPRPRPRPVEGPRP	low
47) RRIRCRPPRLPRPRPRPHANPRP	intermediate
48) RRIRTRPPRLPRPRPRPHQEPRP	low

====

# Tested on: Escherichia coli TOP10
# Experiment description: shrunken log2 fold change of peptide-encoding DNA abundance (4.5 h post-induction vs induction); higher = less antimicrobial activity (less host growth inhibition)
# Cond: time post-induction: 4.5 h; library: site-saturation at positions 5, 18, 19, 20
Measured parameter: shrunken log2 fold change

1. RRIRRRPPRLPRPRPRPSQQPRP	-0.0599
2. RRIRMRPPRLPRPRPRPGCEPRP	1.87
3. RRIRPRPPRLPRPRPRPITSPRP	-0.354
4. RRIRKRPPRLPRPRPRPMCPPRP	0.199

====

# Test system: Escherichia coli TOP10
# Experiment description: shrunken log2 fold change of peptide-encoding DNA abundance (4.5 h post-induction vs induction); higher = less antimicrobial activity (less host growth inhibition)
# Cond: time post-induction: 4.5 h; library: site-saturation at positions 5, 18, 19, 20
Measured parameter: shrunken log2 fold change

1) RRIRYRPPRLPRPRPRPQKYPRP	-0.969
2) RRIRCRPPRLPRPRPRPPSSPRP	-0.0857
3) RRIRGRPPRLPRPRPRPYVCPRP	-0.00206
4) RRIRYRPPRLPRPRPRPQKNPRP	-0.555
5) RRIRMRPPRLPRPRPRPPWQPRP	0.763
6) RRIRERPPRLPRPRPRPRNPPRP	-0.0856
7) RRIRRRPPRLPRPRPRPGVQPRP	-0.00257
8) RRIRMRPPRLPRPRPRPSATPRP	3.21
9) RRIRYRPPRLPRPRPRPTAFPRP	0.0438
10) RRIRARPPRLPRPRPRPKSSPRP	0.188
11) RRIRTRPPRLPRPRPRPDLEPRP	-0.00853

====

# Test system: Escherichia coli TOP10
# Experiment description: shrunken log2 fold change of peptide-encoding DNA abundance (4.5 h post-induction vs induction); higher = less antimicrobial activity (less host growth inhibition)
# Cond: time post-induction: 4.5 h; library: site-saturation at positions 5, 18, 19, 20
Classification field: yes = shrunken log2 fold change at or over -0.01; no = shrunken log2 fold change under -0.01.

1) RRIRDRPPRLPRPRPRPFAVPRP	no
2) RRIRGRPPRLPRPRPRPWIAPRP	no
3) RRIRRRPPRLPRPRPRPHEDPRP	yes
4) RRIRFRPPRLPRPRPRPWNCPRP	no
5) RRIRGRPPRLPRPRPRPHKCPRP	no
6) RRIRWRPPRLPRPRPRPYFTPRP	no
7) RRIRNRPPRLPRPRPRPRWSPRP	no
8) RRIRYRPPRLPRPRPRPRKCPRP	no
9) RRIRMRPPRLPRPRPRPETEPRP	yes
10) RRIRKRPPRLPRPRPRPAFMPRP	yes
11) RRIRPRPPRLPRPRPRPNNLPRP	no

====

# Test system: Escherichia coli TOP10;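 further: peptides expressed intracellularly from a pBAD plasmid library in pooled LB shake-flask culture, induced with 0.3% L-arabinose, DNA abundance read by NGS, three biological replicates, DESeq2 with apeglm shrinkage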
# Experiment description: shrunken log2 fold change of peptide-encoding DNA abundance (4.5 h post-induction vs induction); higher = less antimicrobial activity (less host growth inhibition)
# Cond: time post-induction: 4.5 h; library: site-saturation at positions 5, 18, 19, 20
Measured parameter: shrunken log2 fold change

1. RRIRERPPRLPRPRPRPWMVPRP	-0.685
2. RRIRCRPPRLPRPRPRPVQEPRP	0.286
3. RRIRTRPPRLPRPRPRPQISPRP	-0.024
